Ref: patent US20140225048A1

- ASSAY NOTES: Examination of solubility of compounds in toluene
- CONDITION SET: in toluene at room temperature
MEASURE: Solubility

Some compounds with known Solubility results, for comparison:
CCCCn1c(=O)cc2c3c(c(NCCC4=CCCCC4)ccc31)C(=O)c1ccccc1-2; ≧10%^
Cc1ccc(Nc2ccc3c4c(cc(=O)n3-c3ccc(C)cc3)-c3ccccc3C(=O)c24)cc1; ≦1%
Cc1ccc(Nc2ccc3c4c(cc(=O)n3C)-c3ccccc3C(=O)c24)cc1; ≦1%
CCCCC(CC)CNc1ccc2c3c(cc(=O)n2C)-c2ccccc2C(=O)c13 (stereo not drawn); 5%
CCCCC(CC)CNc1ccc2c3c(cc(=O)n2CC(CC)CCCC)-c2ccccc2C(=O)c13 (stereo not drawn); ≧10%^

Given Cn1c(=O)cc2c3c(c(Nc4ccccc4)ccc31)C(=O)c1ccccc1-2 , state its recorded Solubility.
≦1%

Form field: reported Solubility of CCCCCCCCCCCCNc1ccc2c3c(cc(=O)n2CCCC)-c2ccccc2C(=O)c13
≧10%^

I am curious: what Solubility value has been reported for Cc1cccc(Nc2ccc3c4c(cc(=O)n3C)-c3ccccc3C(=O)c24)c1 ?
≦1%
